# PROTOCOL SUMMARY: WHO-TDR: Cytotoxicity
# Format: toxicity, cell-based
# REPORTED CONDITIONS: human, MRC5 cells
// reported IC50 for each item listed

COMPOUND	IC50
O=C(NCc1cccs1)c1cn(Cc2ccccc2)nc1OCc1ccccc1	2.72 µg/mL
Cc1ccc(-n2ccnc2N2CCN(C(=O)/C=C\c3ccccc3)CC2)cc1	> 12.3 µg/mL
Cc1ccc(S(=O)(=O)N2CCCCC2CC(=O)Nc2ccc(Cl)cc2)cc1 (configuration not stated)	> 12.2 µg/mL
CCOC(=O)c1sc(Nc2nc3c(F)cccc3s2)nc1C	> 10.1 µg/mL

Ask | Identify the reported IC50 for the following entry. O=C(Nc1nnc(-c2cccnc2)o1)c1cccc(Br)c1
Reply | 8.09 µg/mL

Ask | Given O=C(Nc1nc(-c2ccccn2)cs1)C1CCN(S(=O)(=O)c2cccs2)CC1 , respond with its IC50.
Reply | > 13 µg/mL

Ask | Give IC50 for the following compound: Cc1nc2c(ccc3nc(Nc4nc5ccc(C(C)C)cc5s4)sc32)s1
Reply | 3.59 µg/mL

Ask | Consider the compound CCOc1cccc2sc(N(CCCn3ccnc3)C(=O)c3cccs3)nc12 and give its recorded IC50.
Reply | 5.87 µg/mL

Ask | Report IC50 for O=C(COc1cccc2c1CCN(Cc1ccccc1F)C2=O)N1CCC(Cc2ccccc2)CC1
Reply | 4.56 µg/mL

Ask | Look up IC50 of O=C(c1ccccc1)N1CCN(c2ccc(Nc3ccccn3)nn2)CC1 and report it.
Reply | > 10.8 µg/mL

Ask | Indicate its recorded IC50; the compound in question is O=C(Cn1c(=O)n(Cc2cccs2)c(=O)c2ncccc21)OCc1ccccc1
Reply | > 12.2 µg/mL

Values were extracted from ChEMBL document CHEMBL2093137.
